system: HeLa; experiment: Cytotoxicity against human HeLa cells after 48 hrs by MTT assay; assay type: functional, cell-based
Quick rule for you: IC50 under 10 µg/mL gets 1.0, anything else gets 0.0.

Worked set:
Please indicate whether the reported IC50 of C=C1CCC2C(C)(C)CCC[C@]2(C)[C@H]1CC=O (stereo partly drawn) is strictly below 10 µg/mL.
1.0

Please indicate whether the reported IC50 of C=C1CC[C@H]2C(C)(C)CCC[C@]2(C)[C@H]1C/C=C(\C=O)CC=O (mixture of isomers) is strictly below 10 µg/mL.
0.0

Please indicate whether the reported IC50 of C=C1CC[C@H]2C(C)(C)CCC[C@]2(C)[C@H]1C/C=C(\CO)CCO is strictly below 10 µg/mL.
0.0

Please indicate whether the reported IC50 of C=C1CC[C@H]2C(C)(C)CCC[C@]2(C)[C@H]1C/C=C(/CC(=O)O)C(=O)O is strictly below 10 µg/mL.
0.0

Please indicate whether the reported IC50 of C=C1CC[C@H]2C(C)(C)CCC[C@]2(C)[C@H]1CC(=O)N(C)OC is strictly below 10 µg/mL.
0.0

***
Please indicate whether the reported IC50 of C=C1CC[C@H]2C(C)(C)CCC[C@]2(C)[C@H]1C/C=C(/CC(=O)OC)C(=O)OC is strictly below 10 µg/mL.
0.0

Please indicate whether the reported IC50 of CON(C)C(=O)C[C@H]1[C@@]2(C)CCCC(C)(C)[C@@H]2CC[C@]1(C)O [WEINREB'S AMIDE] is strictly below 10 µg/mL.
0.0

Please indicate whether the reported IC50 of CC[C@]1(O)C[C@H]2CN(CCc3c([nH]c4ccccc34)[C@@](C(=O)OC)(c3cc4c(cc3OC)N(C=O)[C@H]3[C@@](O)(C(=O)OC)[C@H](OC(C)=O)[C@]5(CC)C=CCN6CC[C@]43[C@@H]65)C2)C1 is strictly below 10 µg/mL.
1.0

All values here come from ChEMBL document CHEMBL1240463.
